Source listed as ChEMBL document CHEMBL3864168.

- experimental-target: Phosphatidylinositol 4,5-bisphosphate 3-kinase catalytic subunit beta isoform (Homo sapiens, UniProt P42338)
- Sequence (P42338 whole entry, canonical isoform): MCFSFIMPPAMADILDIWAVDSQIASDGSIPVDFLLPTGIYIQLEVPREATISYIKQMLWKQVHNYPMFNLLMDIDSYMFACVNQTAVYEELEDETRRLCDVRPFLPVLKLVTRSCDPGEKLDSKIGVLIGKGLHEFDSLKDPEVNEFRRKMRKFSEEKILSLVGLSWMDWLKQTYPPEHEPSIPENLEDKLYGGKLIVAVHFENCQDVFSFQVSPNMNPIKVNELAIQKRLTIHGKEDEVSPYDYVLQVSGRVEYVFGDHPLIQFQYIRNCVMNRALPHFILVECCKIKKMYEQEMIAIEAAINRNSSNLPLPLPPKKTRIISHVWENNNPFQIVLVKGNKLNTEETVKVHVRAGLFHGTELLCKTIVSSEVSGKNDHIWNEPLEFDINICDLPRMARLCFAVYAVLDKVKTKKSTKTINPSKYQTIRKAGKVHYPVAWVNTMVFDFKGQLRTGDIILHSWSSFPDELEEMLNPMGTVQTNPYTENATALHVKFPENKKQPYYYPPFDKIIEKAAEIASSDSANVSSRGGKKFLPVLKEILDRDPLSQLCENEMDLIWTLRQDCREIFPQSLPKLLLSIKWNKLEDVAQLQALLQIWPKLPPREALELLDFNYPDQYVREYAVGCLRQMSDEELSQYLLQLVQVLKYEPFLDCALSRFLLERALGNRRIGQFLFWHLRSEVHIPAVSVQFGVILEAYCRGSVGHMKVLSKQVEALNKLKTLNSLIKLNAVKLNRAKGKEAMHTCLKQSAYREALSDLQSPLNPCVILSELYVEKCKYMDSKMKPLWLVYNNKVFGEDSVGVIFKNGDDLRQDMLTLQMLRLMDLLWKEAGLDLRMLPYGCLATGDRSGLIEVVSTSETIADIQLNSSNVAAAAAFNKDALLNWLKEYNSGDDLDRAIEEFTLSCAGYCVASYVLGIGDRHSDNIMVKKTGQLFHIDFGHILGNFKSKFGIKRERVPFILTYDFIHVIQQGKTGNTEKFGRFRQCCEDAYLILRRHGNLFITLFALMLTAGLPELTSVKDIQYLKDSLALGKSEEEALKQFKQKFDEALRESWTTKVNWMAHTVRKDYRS
- test-method-notes: Inhibition of PI3Kbeta in human PC3 cells assessed as suppression of AKT phosphorylation at Thr308 after 60 mins by ELISA
- Format: cell-based, PC-3
reported-metric: pIC50
Please keep in mind that pIC50 is minus log10 of the molar concentration; only the number is needed.

[Q] Please indicate pIC50 recorded for Cc1c(Cc2c(CN(C)CCS(C)(=O)=O)nc3c(N)cc(N4CCOCC4)nn23)cccc1C(F)(F)F
[A] 7.39
